Assay: Plasma concentration of CFIX after oral administration to rats with polymer and/or CDX
Assay type: in vivo
Details: male, SD, rat, CFIX 2.3 mg/kg, polymer 500 mg/kg
property_label: Tmax (min)
Quick reminder: number only, in min, skip the unit.

Ask: Any idea what its Tmax is? The compound is C=CC1=C(C(=O)O)N2C(=O)[C@@H](NC(=O)/C(=N\OCC(=O)O)c3csc(N)n3)[C@H]2SC1
Result: 43.2

---

Assay: Plasma concentration of CFIX after oral administration to rats with polymer and/or CDX
Type: in vivo
Conditions: male, SD, rat, CFIX 2.3 mg/kg, polymer 500 mg/kg
property_label: Cmax (ng/mL)
Give the value in ng/mL but do not write ng/mL after it.

Ask: Look up Cmax for this compound: C=CC1=C(C(=O)O)N2C(=O)[C@@H](NC(=O)/C(=N\OCC(=O)O)c3csc(N)n3)[C@H]2SC1
Result: 4130
